Entries annotated with measured TGI
System: UACC-62 melanoma
Experiment: NCI tumour cell line growth inhibition, 48 h

Here's what some known entries look like.
compound	TGI
CN1N=C2c3ccccc3CC[C@H]2C1c1cccc(O)c1 (stereo partly specified)	> 100 µM
Cc1ccc(C2=NN(c3ccc(S(N)(=O)=O)cc3)C(c3cn(-c4ccccc4)nc3-c3ccccc3)C2)cc1 (stereo unspecified)	> 100 µM
O=c1/c(=C/c2ccc([N+](=O)[O-])o2)sc2n1[C@@H](c1ccc3c(c1)OCO3)C=C(c1cc(F)c(Cl)cc1Cl)N=2	34 µM
CC(C)(C)c1cc(-c2nc3c(F)c(F)c(F)c(F)c3[nH]2)cc(C(C)(C)C)c1O	> 100 µM
c1cc(C[S+]2CCCC2)sc1C[S+]1CCCC1	> 100 µM

Prompt line: Under UACC-62 melanoma, report TGI for COc1cc2c(cc1OC)C(=O)/C(=C/c1ccc([N+](=O)[O-])cc1)CC2
Response line: > 10 µM

Prompt line: Look up UACC-62 melanoma data: TGI of COC(=O)C1(C(=O)OC)CC2=C(S(=O)(=O)c3ccccc3)C[C@H](C#N)[C@H]2C1 , then report it.
Response line: > 100 µM

Prompt line: Specify TGI for COc1ccc2c(c1)CC[C@@H]1[C@@H]2CC[C@]2(C)C(=O)/C(=C/c3ccc(O)c(OC)c3)C[C@@H]12 , system UACC-62 melanoma.
Response line: > 100 µM

Prompt line: State, for UACC-62 melanoma, measured TGI of the compound listed here: Cn1sc2ccccc2c1=S
Response line: 18.1 µM

Prompt line: Please look at O=C(NCCCCCCNC(=O)OCc1ccc2c(Cl)cc(Cl)c(O)c2n1)OCc1ccc2c(Cl)cc(Cl)c(O)c2n1 and tell me its recorded TGI on UACC-62 melanoma.
Response line: 2.28 µM

Prompt line: Lab note: record TGI of Cc1nnc2n1N=C(c1cc(F)c(Cl)cc1Cl)/C(=C/c1ccc3c(c1)OCO3)S2 tested on UACC-62 melanoma.
Response line: > 100 µM

Prompt line: Fill: TGI (UACC-62 melanoma) for this compound Cc1cc2nc(C(Cl)Cl)nc(-c3ccccc3)n2n1
Response line: 56 µM

Prompt line: Answer with TGI of CCOC(=O)Nn1c(C)cc(C(=O)OC)c1C measured for UACC-62 melanoma.
Response line: > 100 µM

Prompt line: For UACC-62 melanoma, give the measured TGI of the entry CCc1ccccc1NC(=O)C(=O)CC(=O)c1sc(Nc2ccccc2Cl)nc1C
Response line: > 100 µM

Prompt line: Send back UACC-62 melanoma TGI of O=C1C=C2CC[C@H]3[C@@H]4CC[C@H](OC(=O)c5cccc6cc7ccccc7nc56)[C@H]4CC[C@@H]3[C@H]2CC1 only.
Response line: > 100 µM

Prompt line: Param request: TGI | system UACC-62 melanoma | item CCOC(=O)c1cc(Br)c(-c2onc(C)c2Br)n1C
Response line: > 100 µM

---

Reported TGI values for the following compounds.
Tested on: TK-10 renal
Assay: NCI tumour cell line growth inhibition, 48 h

Some compounds with known TGI results, for comparison:
compound	TGI
CC1=C2CN(C(=O)OCC(C)C)CCC2C2=C(C(=O)c3ccccc3C2=O)C1C (stereo not drawn)	> 10 µM
CN1N=C2c3ccccc3CC[C@H]2C1c1cccc(O)c1 (stereo partly drawn)	> 100 µM

Prompt line: Give the reported TGI for this compound. CN1CCN(CC(=O)N2c3cccc4cccc(c34)N(C(=O)CN3CCN(C)CC3)C2c2cn(-c3ccccc3)nc2-c2cccc([N+](=O)[O-])c2)CC1
Response line: 5.61 µM

Prompt line: Given the compound COc1ccc(C2S/C(=C\c3ccccc3)C(=O)N2NC(=O)Cc2ccccc2)cc1 (stereo not drawn) , write its reported TGI.
Response line: > 100 µM

Prompt line: Note down TGI recorded for Nc1ncnc2c1ncn2C1OC(COC2C(CO)OC(OC(C(=O)O)C(O)C(OP(=O)(O)O)C(O)C(=O)O)C(O)C2O)C(O)C1O (stereo not drawn)
Response line: > 100 µM

Prompt line: Specify measured TGI for Fc1c(F)c(C(F)(F)F)c(F)c(F)c1N/N=C/c1cn(Cc2ccccc2)c2ccccc12 .
Response line: 66.4 µM

Prompt line: Give recorded TGI. CCN(CC)CC[n+]1cc2cc(OC)c(OC)cc2c2ccc3cc4c(cc3c21)OCO4
Response line: 5.28 µM

Prompt line: Hello, please tell me recorded TGI for this one: O=S(=O)(CCCCl)SCCCCl
Response line: > 100 µM
